# target desc: VEGF (as used in the VEGFR competition ELISA)
# Sequence (P15692 whole entry): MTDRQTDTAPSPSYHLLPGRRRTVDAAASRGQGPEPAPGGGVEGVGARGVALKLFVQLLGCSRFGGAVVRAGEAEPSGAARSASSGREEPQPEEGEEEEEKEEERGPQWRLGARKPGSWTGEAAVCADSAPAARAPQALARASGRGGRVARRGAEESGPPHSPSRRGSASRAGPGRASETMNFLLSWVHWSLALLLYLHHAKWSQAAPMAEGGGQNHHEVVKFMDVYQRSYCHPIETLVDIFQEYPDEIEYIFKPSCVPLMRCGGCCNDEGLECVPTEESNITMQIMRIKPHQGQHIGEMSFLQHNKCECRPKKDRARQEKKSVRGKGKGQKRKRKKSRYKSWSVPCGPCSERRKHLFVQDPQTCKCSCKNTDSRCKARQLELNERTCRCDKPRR
# test method notes: competition ELISA, VEGF binding to hVEGFR1; ratio to reference Luc
Below, each entry is listed with its recorded Rel. activity hVEGR1 comp. ELISA (EC50Luc [nM]/EC50test [nM]).
Number only, in ratio; omit the unit.

// solved cases for Rel. activity hVEGR1 comp. ELISA (EC50Luc [nM]/EC50test [nM]) follow
binder	measured value
578-min (scFv, NH2-VL-linker-VH-COOH; Min graft on FW1.4; also called 820) scFv: EIVMTQSPSTLSASVGDRVIITCQASEIIHSWLAWYQQKPGKAPKLLIYLASTLASGVPSRFSGSGSGAEFTLTISSLQPDDFATYYCQNVYLASTNGANFGQGTKLTVLGGGGGSGGGGSGGGGSGGGGSEVQLVESGGGLVQPGGSLRLSCAASGFSLTDYYYMTWVRQAPGKGLEWVSFIDPDDDPYYATWAKGRFTISRDNSKNTLYLQMNSLRAEDTAVYYCAKGDHNSGWGLDIWGQGTLVTVSS	4.8
567-min (scFv) EIVMTQSPSTLSASVGDRVIITCQADQSIYIWLSWYQQKPGKAPKLLIYKASTLESGVPSRFSGSGSGAEFTLTISSLQPDDFATYYCQNNAHYSTNGGTFGQGTKLTVLGGGGGSGGGGSGGGGSGGGGSEVQLVESGGGLVQPGGSLRLSCAASGFSLSDYYMCWVRQAPGKGLEWVSCLDYFGSTDDASWAKGRFTISRDNSKNTLYLQMNSLRAEDTAVYYCAKTDDSRGWGLNIWGQGTLVTVSS	57
511-min (scFv, NH2-VL-linker-VH-COOH; Min graft on FW1.4; also called 801) scFv: EIVMTQSPSTLSASVGDRVIITCQASQSINIWLSWYQQKPGKAPKLLIYRASTLASGVPSRFSGSGSGAEFTLTISSLQPDDFATYYCQANYAYSAGYGAAFGQGTKLTVLGGGGGSGGGGSGGGGSGGGGSEVQLVESGGGLVQPGGSLRLSCAASGFSLNTYYMNWVRQAPGKGLEWVSIIAPDDTTYYASWAKSRFTISRDNSKNTLYLQMNSLRAEDTAVYYCAKSGDTTAWGADIWGQGTLVTVSS	0.7
509-min (scFv, NH2-VL-linker-VH-COOH; Min graft on FW1.4; also called 854) scFv: EIVMTQSPSTLSASVGDRVIITCQASQNIRIWLSWYQQKPGKAPKLLIYKASTLESGVPSRFSGSGSGAEFTLTISSLQPDDFATYYCQNNAHYSTNGGTFGQGTKLTVLGGGGGSGGGGSGGGGSGGGGSEVQLVESGGGLVQPGGSLRLSCAASGFSLSSYYMCWVRQAPGKGLEWVSCLDYVGDTDYASWAKGRFTISRDNSKNTLYLQMNSLRAEDTAVYYCAKTDDSRGWGLNIWGQGTLVTVSS	2.9

Alright, here's another binder for you.
Exam item: Name the reported Rel. activity hVEGR1 comp. ELISA (EC50Luc [nM]/EC50test [nM]) value associated with the binder 509-maxII (scFv) EIVMTQSPSTLSASVGDRVIITCQASQNIRIWLSWYQQKPGKAPKLLIYKASTLESGVPSRFSGSGSGTEFTLTISSLQPDDFATYYCQNNAHYSTNGGTFGQGTKLTVLGGGGGSGGGGSGGGGSGGGGSEVQLVESGGGLVQPGGSLRLSCTASGFSLSSYYMSWVRQAPGKGLEWVGILDYVGDTDYASWAKGRFTISKDASKNTVYLQMNSLRAEDTAVYYCARTDDSRGWGLNIWGQGTLVTVSS
Marked response: 0.09

Values from patent US20180127493A1
